Assay: Solubility in oils for SEDDS/SMEDDS
Format: physicochemical
Conditions: oil or lipid; neutral oil

| Smiles code | solubility |
| --- | --- |
| CN1CCC(COc2cnc(-c3cccc(Cn4nc(-c5cccc(C#N)c5)ccc4=O)c3)nc2)CC1 | < 5000 µg/mL |
